# Method Notes: Selectivity ratio of IC50 for wild type rat nNOS to IC50 for human nNOS by hemoglobin capture assay
The entries below come with measured Ratio IC50 values attached.

{"Compound": "Cc1cc(N)nc(CC2CNCC2NC(=O)CNCCc2cccc(F)c2)c1 (racemic)", "Ratio IC50": 4.3}
{"Compound": "Cc1cc(N)nc(CC2CNCC2NCCNCCc2ccc(Cl)cc2)c1 (racemic)", "Ratio IC50": 3.8}
{"Compound": "Cc1cc(C)nc(N)c1", "Ratio IC50": 1}
{"Compound": "Cc1cc(N)nc(CC2CNCC2NCCOCCc2cccc(F)c2)c1 (racemic)", "Ratio IC50": 2.4}
{"Compound": "Cc1cc(N)nc(CC2CNCC2NCCN)c1 (racemic)", "Ratio IC50": 3.1}

====

# Target Under Test: Nitric oxide synthase 1 (Homo sapiens, UniProt P29475)
# Sequence (P29475 whole entry): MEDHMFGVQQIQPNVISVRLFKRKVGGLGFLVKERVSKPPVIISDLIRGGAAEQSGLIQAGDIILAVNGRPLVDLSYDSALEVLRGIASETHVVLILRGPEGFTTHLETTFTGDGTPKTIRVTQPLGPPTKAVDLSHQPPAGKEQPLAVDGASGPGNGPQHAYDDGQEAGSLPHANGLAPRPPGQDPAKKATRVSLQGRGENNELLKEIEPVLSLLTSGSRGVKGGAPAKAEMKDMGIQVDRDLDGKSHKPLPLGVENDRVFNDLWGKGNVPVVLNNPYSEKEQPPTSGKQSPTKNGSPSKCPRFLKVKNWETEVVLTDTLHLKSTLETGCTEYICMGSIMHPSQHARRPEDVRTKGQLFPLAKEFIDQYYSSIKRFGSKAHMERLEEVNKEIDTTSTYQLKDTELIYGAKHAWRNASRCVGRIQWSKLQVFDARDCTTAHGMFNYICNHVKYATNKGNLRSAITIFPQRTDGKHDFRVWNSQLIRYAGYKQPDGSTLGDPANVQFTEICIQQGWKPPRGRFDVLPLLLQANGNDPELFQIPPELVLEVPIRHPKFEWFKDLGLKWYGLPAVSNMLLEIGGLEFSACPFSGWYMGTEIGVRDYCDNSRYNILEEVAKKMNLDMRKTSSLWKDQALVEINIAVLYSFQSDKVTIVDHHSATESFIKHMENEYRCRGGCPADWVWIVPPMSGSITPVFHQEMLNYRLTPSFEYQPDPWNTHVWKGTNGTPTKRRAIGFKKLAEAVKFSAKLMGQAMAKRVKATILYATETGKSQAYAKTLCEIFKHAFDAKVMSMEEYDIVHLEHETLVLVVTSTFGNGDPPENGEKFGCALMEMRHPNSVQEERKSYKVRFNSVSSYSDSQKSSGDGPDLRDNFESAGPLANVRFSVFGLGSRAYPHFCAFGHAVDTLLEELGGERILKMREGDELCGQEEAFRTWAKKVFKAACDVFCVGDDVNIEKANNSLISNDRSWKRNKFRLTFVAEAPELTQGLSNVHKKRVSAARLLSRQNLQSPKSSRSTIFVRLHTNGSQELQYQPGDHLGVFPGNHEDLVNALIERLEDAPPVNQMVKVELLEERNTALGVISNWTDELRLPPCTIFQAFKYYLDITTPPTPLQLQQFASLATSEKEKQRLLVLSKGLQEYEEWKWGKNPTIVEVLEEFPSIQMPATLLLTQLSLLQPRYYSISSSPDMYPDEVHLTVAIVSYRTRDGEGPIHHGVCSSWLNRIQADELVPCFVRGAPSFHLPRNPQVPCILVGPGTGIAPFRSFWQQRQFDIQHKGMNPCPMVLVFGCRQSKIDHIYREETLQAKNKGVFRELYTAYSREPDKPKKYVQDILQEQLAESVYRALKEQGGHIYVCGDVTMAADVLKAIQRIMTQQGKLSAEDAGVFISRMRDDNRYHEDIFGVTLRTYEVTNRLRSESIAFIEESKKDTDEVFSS
# Method Notes: Inhibition of human nNOS by radioactivity assay

{"Molecule": "Cc1cc(N)nc(CC2CNCC2OCCNCCc2cccc(F)c2)c1 (racemic)", "IC50 (nM)": 700}

====

# Species on record: Rattus norvegicus
# Method Notes: Selectivity ratio of IC50 for wild type rat nNOS to IC50 for rat nNOS L337H mutant by hemoglobin capture assay
Listing: Ratio IC50 of selected compounds

{"Compound": "Cc1cc(N)nc(CC2CNCC2NC(=O)CNCCc2cccc(F)c2)c1 (racemic)", "Ratio IC50": 5.7}
{"Compound": "Cc1cc(N)nc(CC2CNCC2NCCOCCc2cccc(F)c2)c1 (racemic)", "Ratio IC50": 1.9}
{"Compound": "Cc1cc(N)nc(CC2CNCC2NCCN)c1 (racemic)", "Ratio IC50": 2.7}
{"Compound": "Cc1cc(C)nc(N)c1", "Ratio IC50": 1.1}
{"Compound": "Cc1cc(N)nc(CC2CNCC2NCCNCCc2ccc(Cl)cc2)c1 (racemic)", "Ratio IC50": 4.6}

====

The reader will find pIC50 measurements below, all made with Nitric oxide synthase 1 (Rattus norvegicus, UniProt P29476, L337H).
Sequence (P29476 whole entry L337H): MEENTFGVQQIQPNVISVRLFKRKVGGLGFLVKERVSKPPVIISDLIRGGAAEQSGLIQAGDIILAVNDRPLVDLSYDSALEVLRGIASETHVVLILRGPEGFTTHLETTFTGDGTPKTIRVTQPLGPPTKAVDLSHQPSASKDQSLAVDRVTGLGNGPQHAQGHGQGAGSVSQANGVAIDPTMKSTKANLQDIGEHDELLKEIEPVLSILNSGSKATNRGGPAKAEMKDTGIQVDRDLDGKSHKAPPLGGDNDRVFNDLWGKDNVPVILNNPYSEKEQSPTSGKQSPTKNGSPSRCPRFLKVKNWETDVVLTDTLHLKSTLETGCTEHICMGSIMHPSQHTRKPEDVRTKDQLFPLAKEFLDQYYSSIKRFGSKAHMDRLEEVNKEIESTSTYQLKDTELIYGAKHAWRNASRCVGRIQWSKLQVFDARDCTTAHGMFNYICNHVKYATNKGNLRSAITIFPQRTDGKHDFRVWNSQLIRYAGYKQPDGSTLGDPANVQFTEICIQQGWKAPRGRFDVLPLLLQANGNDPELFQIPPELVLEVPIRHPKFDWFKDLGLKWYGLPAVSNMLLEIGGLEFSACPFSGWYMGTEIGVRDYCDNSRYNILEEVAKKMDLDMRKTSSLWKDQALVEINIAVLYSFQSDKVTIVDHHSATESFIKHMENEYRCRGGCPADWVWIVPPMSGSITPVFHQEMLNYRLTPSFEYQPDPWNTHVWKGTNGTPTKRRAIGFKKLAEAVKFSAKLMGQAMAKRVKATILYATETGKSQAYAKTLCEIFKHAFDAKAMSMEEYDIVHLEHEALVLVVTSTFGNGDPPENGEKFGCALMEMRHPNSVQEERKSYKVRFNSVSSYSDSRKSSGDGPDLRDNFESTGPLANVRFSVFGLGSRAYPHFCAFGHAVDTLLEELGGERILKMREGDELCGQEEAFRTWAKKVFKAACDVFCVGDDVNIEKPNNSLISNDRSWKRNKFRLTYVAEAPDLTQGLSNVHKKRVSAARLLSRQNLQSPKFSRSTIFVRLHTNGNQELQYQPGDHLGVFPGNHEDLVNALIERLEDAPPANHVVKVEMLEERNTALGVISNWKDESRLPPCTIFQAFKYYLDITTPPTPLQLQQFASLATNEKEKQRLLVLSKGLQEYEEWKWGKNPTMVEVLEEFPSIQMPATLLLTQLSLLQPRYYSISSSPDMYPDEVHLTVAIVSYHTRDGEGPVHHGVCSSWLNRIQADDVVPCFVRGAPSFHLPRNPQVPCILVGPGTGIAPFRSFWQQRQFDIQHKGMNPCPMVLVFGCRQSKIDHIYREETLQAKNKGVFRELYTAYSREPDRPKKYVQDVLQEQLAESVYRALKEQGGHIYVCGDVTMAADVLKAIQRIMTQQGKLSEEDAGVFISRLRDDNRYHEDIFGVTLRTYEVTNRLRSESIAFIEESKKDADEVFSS
pIC50: −log10 of the molar value.
Readout Name: pIC50

{"Compound": "Cc1cc(N)nc(CC2CNCC2NC(=O)CNCCc2cccc(F)c2)c1 (racemic)", "Readout Name": "pIC50", "Value Observed": 5.40}
{"Compound": "Cc1cc(C)nc(N)c1", "Readout Name": "pIC50", "Value Observed": 7.00}
{"Compound": "Cc1cc(N)nc(CC2CNCC2NCCNCCc2ccc(Cl)cc2)c1 (racemic)", "Readout Name": "pIC50", "Value Observed": 5.30}
{"Compound": "Cc1cc(N)nc(CC2CNCC2NCCN)c1 (racemic)", "Readout Name": "pIC50", "Value Observed": 5.47}
{"Compound": "Cc1cc(N)nc(CC2CNCC2NCCOCCc2cccc(F)c2)c1 (racemic)", "Readout Name": "pIC50", "Value Observed": 5.26}

====

This section lists IC50 readings for Nitric oxide synthase 1 (Rattus norvegicus, UniProt P29476).

{"Compound": "Cc1cc(N)nc(CC2CNCC2NC(=O)CNCCc2cccc(F)c2)c1 (racemic)", "Scale Unit": "µM", "IC50": 0.7}
{"Compound": "Cc1cc(C)nc(N)c1", "Scale Unit": "µM", "IC50": 0.1}
{"Compound": "Cc1cc(N)nc(CC2CNCC2NCCOCCc2cccc(F)c2)c1 (racemic)", "Scale Unit": "µM", "IC50": 2.9}
{"Compound": "Cc1cc(N)nc(CC2CNCC2NCCN)c1 (racemic)", "Scale Unit": "µM", "IC50": 1.3}
